- TARGET_UNDER_TEST: TRPC4 (transient receptor potential cation channel C4), mouse
- ASSAY_COMMENT: blockers of mouse TRPC4 cation channel – cell-based, concentration-response, SAR follow-up (AID 652179)
- CONDITION_SUMMARY: HEK293 TRPC4/mu-opioid cells, Fluo-4 calcium fluorescence ratio
ENDPOINT: IC50

c1ccc2nc(N3CCCCC3)ccc2c1 ... 4.61 µM
Cc1cc(N2CCCC(F)C2)nc2ccccc12 (stereo unspecified) ... 12.6 µM
Cc1cc(N2CCCCC2)nc2ccccc12 ... 1.53 µM
Cc1cc(N2CCC(F)CC2)nc2ccccc12 ... 10.2 µM
Cc1cc(N2CCC(F)(F)CC2)nc2ccccc12 ... 10.6 µM

Turning now to a further molecule:
**Q:** Write down IC50 measured for item `C[C@H]1CCCN1c1ccc2ccccc2n1`
**A:** 14.9 µM
